- ASSAY_OVERVIEW: gradient 5% acetonitrile 3 min, to 50% in 2 min, to 85% in 15 min, held 3 min, 100 µL/min
- CONDITION: column: Zorbax Extend-C18 2.1 x 50 mm; eluents: water / acetonitrile, 0.1% formic acid
Categorize each record by its RP-LC retention time using A (below 700 s), B (700 s to below 1000 s), C (1000 s or more)

Known results for compounds:
# COMPOUND, ASSIGNED_CATEGORY
measured = [
    ("Cc1ccc(NC(=O)C2CCN(C(=O)c3ncn4c3COC(c3ccc(F)cc3)C4)CC2)cc1C (centres undefined)", "B"),
    ("CCc1cc(=O)n(CC(=O)Nc2ccc(OC)c(OC)c2)c(N2CCOCC2)n1", "A"),
    ("Cc1ccc(Cl)cc1N1CCN(c2ccc3cc(S(=O)(=O)N4CCOCC4)ccc3n2)CC1", "C"),
    ("Cc1cccc(-n2cc(C(=O)OCc3ccccn3)c3ccccc3c2=O)c1", "B"),
    ("O=C(NC1CCCCC1)C1CCN(C(=O)c2cccn2-c2cccnc2)CC1", "A"),
]

Which RP-LC retention time band matches Cc1c(Cl)cccc1Nc1ncccc1C(=O)O ?
B

Quick check: band for Cc1nnc(-c2cc3ccccc3n2Cc2ccccc2Cl)o1
C

# bin lookup: classify O=C(N[C@H]1C[C@@H]2C[C@H]1N(C(=O)Nc1ccc3c(c1)CCC3)C2)c1ccccc1 by its RP-LC retention time
B

---

- ASSAY_OVERVIEW: gradient 5% acetonitrile 3 min, to 50% in 2 min, to 85% in 15 min, held 3 min, 100 µL/min
- CONDITION: column: Zorbax Extend-C18 2.1 x 50 mm; eluents: water / acetonitrile, 0.1% formic acid
Would you mind sorting the entries by RP-LC retention time according to these classes? label 0 = under 700 s, label 1 = from 700 s up to 900 s, label 2 = 900 s and over

# MOLECULE, ASSIGNED_CATEGORY
data = [
    ("O=C(NCCn1ncccc1=O)Nc1ccc(OC(F)(F)F)cc1", "label 0"),
]

Input O=C(NCCn1c(=O)n(Cc2ccc(F)cc2)c2cccnc21)c1ccoc1 ; output its category
label 1

Given CCN1CCN(c2cc(C(=O)O)c3cc(NS(=O)(=O)c4cccc(C)c4)ccc3n2)CC1 , name the class its RP-LC retention time places it in.
label 0

Exercise: read the entry CC(C(=O)N1CCC(N2CCCCC2)CC1)C1CCN(S(=O)(=O)c2cccs2)CC1 (stereo not given) and state which class it falls under.
label 0

Bin this entry: Cc1ccc(NC(=O)C2CCN(S(=O)(=O)c3cn(C(C)C)cn3)CC2)cc1N(C)C
label 0

Would you mind sorting O=C(CCc1ccc2cc[nH]c2c1)NCc1cccs1 into the appropriate category?
label 1

Where would CSc1cccc(NC(=O)N2CCC(CC(=O)N3CCCCC3)CC2)c1 land among the classes by reported RP-LC retention time?
label 1

Please classify: O=C(NC1CC1)[C@@H]1C[C@H](Oc2ccccc2)CN1C(=O)COc1ccccc1
label 1

Category lookup for the molecule Cc1ccsc1C(=O)N1CCCn2nc(-c3ccncc3)cc2C1
label 0

Consider Cc1csc(-c2cc(S(=O)(=O)NCCc3ccc(Cl)cc3)c(C)s2)n1 . To which RP-LC retention time class does it belong?
label 2

Hello team, could you let me know which band the following molecule falls into: CCOC(=O)c1sc(NC(=O)Cc2ccc3c(c2)OCO3)cc1C
label 1

---

- ASSAY_OVERVIEW: gradient 5% acetonitrile 3 min, to 50% in 2 min, to 85% in 15 min, held 3 min, 100 µL/min
- CONDITION: column: Zorbax Extend-C18 2.1 x 50 mm; eluents: water / acetonitrile, 0.1% formic acid
MEASURED_METRIC: RP-LC retention time (s)
Give just the number in s; leave the unit off.

Here is how some molecules turned out for RP-LC retention time.
# MOLECULE, RP-LC retention time [s]
records = [
    ("Cc1cc(NC(=O)C2CCN(c3cc(N4CCCC4)ncn3)CC2)ccc1F", 693),
    ("Cc1nc(-c2ccc(N3CCN(C(=O)c4n[nH]c5ccccc45)CC3)nc2)sc1C", 864),
    ("Cc1ccc(Cl)cc1N1CCN(CC(O)COc2ccccc2[N+](=O)[O-])CC1 (stereo not given)", 626),
    ("Cc1cc2nn(CC(=O)Nc3ccc(F)c(Cl)c3)c(=O)n2c(Nc2ccccc2)n1", 1070),
]

Continue with the next molecule.
Suppose we examine the molecule CCOC(=O)c1cccc(NC(=O)C2CCCN(c3nc4ccccc4nc3C(F)(F)F)C2)c1 (stereo not given) ; what RP-LC retention time value has been reported?
1280

---

A collection of molecules and their measured RP-LC retention time
- ASSAY_OVERVIEW: gradient 5% acetonitrile 3 min, to 50% in 2 min, to 85% in 15 min, held 3 min, 100 µL/min
- CONDITION: column: Zorbax Extend-C18 2.1 x 50 mm; eluents: water / acetonitrile, 0.1% formic acid
Answer format: numeric, s implied, no suffix.

Answered examples (8):
# MOLECULE, EXPERIMENTAL_VALUE
measured = [
    ("O=C(CC1C(=O)NCCN1C(=O)CN1CCN(c2ccccn2)CC1)Nc1ccccc1 (centres undefined)", 565),
    ("O=C(NCCCN1CCCC1)C1CCc2sc(C(=O)N3CCOCC3)cc2C1 (centres undefined)", 566),
    ("CN(C)S(=O)(=O)c1ccc2c(c1)N(CC(=O)NCc1ccccc1)C(=O)C1CCCCN21 (centres undefined)", 987),
    ("CC(C)CNC(=O)CCc1nc2ccccc2n(CC(=O)N2CCCc3ccccc32)c1=O", 990),
    ("O=C(C1CCN(c2nc3ccc(-c4cccnc4)nc3s2)CC1)N1CCOCC1", 592),
    ("Cn1ncc2c3ccccc3n(CC(=O)NCCc3ccco3)c2c1=O", 904),
    ("Cc1ccc(Nc2nc(C(=O)NC3CCS(=O)(=O)C3)nc3ccccc23)cc1 (centres undefined)", 685),
    ("CCn1cc(-c2ccc(C)cc2)cc1C(=O)N1CCN(C)CC1", 657),
]

Entry COCC(=O)N(CC(=O)N1CCc2sccc2C1COc1cccc(OC)c1)CC(C)C (centres undefined) has what RP-LC retention time?
894

---

Recorded RP-LC retention time by entry
- ASSAY_OVERVIEW: gradient 5% acetonitrile 3 min, to 50% in 2 min, to 85% in 15 min, held 3 min, 100 µL/min
- CONDITION: column: Zorbax Extend-C18 2.1 x 50 mm; eluents: water / acetonitrile, 0.1% formic acid
Form entry: value (s) — number only.

Guide cases for RP-LC retention time, answers given:
# COMPOUND, RP-LC retention time / s
measured = [
    ("O=S(=O)(NCc1ccccc1Cl)c1c[nH]c2ncccc12", 742),
    ("O=C(Cn1cccc(-c2nc(-c3ccc(Br)cc3)no2)c1=O)NC1CCCC1", 896),
    ("CC(C)NC(=O)c1ccc(-c2ccc(Cl)cc2)o1", 874),
    ("COc1ccc(NC(=O)N(C)CCc2noc(COc3ccccc3)n2)cc1OC", 788),
    ("COc1ccc(NC(=O)Cc2c(C)nn(-c3nc(-c4ccc(Cl)cc4)cs3)c2C)c(OC)c1", 1230),
]

What value of RP-LC retention time has been reported for the following compound? Cc1nncn1C1CN(C(=O)c2cc3ccccc3[nH]2)C1
623

Recorded RP-LC retention time of Cc1cc(N2CCCC2)n2nc(CN3CCN(CC(C)C)CC3)nc2n1 , please.
549

What does the data say about its RP-LC retention time? Entry: O=C(Nc1cccc2nsnc12)C1CCN(c2ccc(-c3cccs3)nn2)CC1
668

For CCc1nc(N)n(CC(=O)Nc2cc(C)ccc2OC)c(=O)c1C , what is its reported RP-LC retention time?
640

For the compound shown here, Cc1ccc(C)c(NC(=O)C2CC(=O)N(CCc3c[nH]c4ccc(F)cc34)C2)c1 (stereo not given) , give the reported RP-LC retention time.
586

---

Reported RP-LC retention time is given for each of the following compounds.
- ASSAY_OVERVIEW: gradient 5% acetonitrile 3 min, to 50% in 2 min, to 85% in 15 min, held 3 min, 100 µL/min
- CONDITION: column: Zorbax Extend-C18 2.1 x 50 mm; eluents: water / acetonitrile, 0.1% formic acid
Entry rule: numbers only, all in s.

Observe how each entry below is paired with its result.
# COMPOUND, RP-LC retention time, s
data = [
    ("COc1ccc(-c2nc(NCCN(C)C3CCCCC3)c3ccccc3n2)cc1", 592),
    ("Cc1ccn2cc(C(=O)NCc3cccs3)nc2c1", 591),
    ("Cc1ccc(Nc2cc(C)nc(N3CCN(C(=O)Nc4cccc(Cl)c4)CC3)n2)cc1", 800),
    ("CC(C)n1nnc2cc(S(=O)(=O)N3CCCC(C(=O)N4CCCCCC4)C3)ccc21 (stereo not given)", 886),
]

I'd like to know its RP-LC retention time. The compound in question is O=C1c2ccccc2C(=O)c2c1ccc(C(=O)N1CCN(c3ccccn3)CC1)c2NCCO
616

# credit: the METLIN SMRT retention time set (Domingo-Almenara et al. 2019)
